Listing of entries alongside the reported EC50.
biological target: RNP_CAL (PB2, PB1, PA, NP, influenza A Luciferase reporter in 293T cells) (Influenza A virus (strain swl A/California/04/2009 H1N1)); test: cell-based
OBSERVABLE: EC50 (nM)

CS(=O)(=O)c1cccc([C@H](c2ccc(F)cc2)[C@H]2Cn3ccnc3-c3c(O)c(=O)cnn32)c1 [Example 42]; 2800
Cc1cccc([C@H](c2ccc(F)cc2)[C@H]2Cn3ccnc3-c3c(O)c(=O)cnn32)c1 [Example 38]; 49
O=c1cnn2c(c1O)-c1nccn1C[C@@H]2[C@@H](c1ccc(F)cc1)c1cc(F)cc(F)c1 [Example 34]; 25
O=c1ccn2c(c1O)-c1nccn1C1(COC1)N2C1c2ccccc2CSc2ccccc21 (stereo not drawn) [Example 80]; 10
O=c1cnn2c(c1O)-c1nccn1CC2C(c1cccc(F)c1)c1cccc(F)c1 (stereo not drawn) [Example 2]; 110
Cc1ccccc1[C@H](c1ccc(F)cc1)[C@H]1Cn2ccnc2-c2c(O)c(=O)cnn21 [Example 40]; 32

###

biological target: truncated Influenza A/victoria/75 PA(1-209) (Influenza A virus (strain A/Victoria/3/1975 H3N2)); test: Endonuclease Inhibition Assay (PA FP Assay); settings: fluorescence polarization, fluorescein-labeled probe
pIC50: −log10 of the molar value.
OBSERVABLE: pIC50

O=c1cnn2c(c1O)-c1nccn1C[C@@H]2[C@H](c1ccc(F)cc1)c1ccc(F)cc1Br; 8.00
O=c1ccn2c(c1O)-c1nccn1C[C@@H]2C(c1ccccc1)c1ccccc1; 8.00
Cc1ccccc1[C@H](c1ccc(F)cc1)[C@H]1Cn2ccnc2-c2c(O)c(=O)cnn21; 7.70
O=c1cnn2c(c1O)-c1nccn1CC2C(c1cccc(F)c1)c1cccc(F)c1 (centres unmarked); 7.15
COCc1cnc2n1C[C@H](C(c1ccccc1)c1ccccc1)n1ccc(=O)c(O)c1-2; 7.00

###

target: RNP_CAL (PB2, PB1, PA, NP, influenza A Luciferase reporter in 293T cells) (Influenza A virus (strain swl A/California/04/2009 H1N1)); experiment: cell-based
pEC50: −log10 of the molar value.
Param threshold (7) applies to pEC50; output 1 (yes) when value >= threshold, 0 (no) when value < threshold.

CCC1N(C(c2ccccc2)c2ccccc2)n2ccc(=O)c(O)c2-c2nccn21 (centres unmarked); 0 (no)
O=c1ccn2c(c1O)-c1ncc(CN3CCSCC3)n1C[C@@H]2C(c1ccccc1)c1ccccc1; 0 (no)
O=c1ccn2c(c1O)-c1ncsc1CN2C(c1ccccc1)c1ccccc1; 0 (no)
COC(=O)OCOc1c2n(ncc1=O)[C@@H](C(c1ccc(F)cc1)c1ccc(F)cc1)Cn1ccnc1-2; 1 (yes)
O=c1cnn2c(c1O)-c1nccn1C[C@@H]2C(c1cccc(F)c1)c1cccc(F)c1; 1 (yes)
Cc1cnc2n1C[C@H](C(c1ccccc1)c1ccccc1)n1ccc(=O)c(O)c1-2; 0 (no)
O=c1cnn2c(c1O)-c1nccn1C[C@@H]2[C@H](c1ccc(F)cc1)c1ccc(F)cc1Br; 1 (yes)
O=c1cnn2c(c1O)-c1nccn1C[C@@H]2[C@@H](c1ccc(F)cc1)c1ccc(C(F)(F)F)cc1; 0 (no)
O=c1ccn2c(c1O)-c1ncc(C(F)F)n1C[C@@H]2C(c1ccccc1)c1ccccc1; 0 (no)
O=c1cnn2c(c1O)-c1nccn1CC2C(c1ccc(Cl)cc1)c1ccc(Cl)cc1 (centres unmarked); 0 (no)
Cc1ccccc1[C@H](c1ccc(F)cc1Br)[C@H]1Cn2ccnc2-c2c(O)c(=O)cnn21; 1 (yes)
O=c1ccn2c(c1O)-c1ocnc1CN2C(c1ccccc1)c1ccccc1; 0 (no)
O=c1ccn2c(c1O)-c1ncoc1CN2C(c1ccccc1)c1ccccc1; 0 (no)
Cc1nc2n(c1C)C[C@H](C(c1ccccc1)c1ccccc1)n1ccc(=O)c(O)c1-2; 0 (no)
O=c1cnn2c(c1O)-c1nccn1C[C@@H]2[C@@H](c1ccc(F)cc1)c1ccc(F)c(F)c1; 1 (yes)
O=c1ccn2c(c1O)-c1ncc(-c3cn[nH]c3)n1C[C@@H]2C(c1ccccc1)c1ccccc1; 0 (no)
O=c1cnn2c(c1O)-c1nccn1C[C@@H]2[C@H](c1ccc(F)cc1)c1cccc(F)c1; 1 (yes)
O=c1cnn2c(c1O)-c1nccn1CC2C(c1ccc(F)cc1)c1ccc(F)cc1 (centres unmarked); 0 (no)
O=c1cnn2c(c1O)-c1nccn1C[C@@H]2C(c1cccc(Cl)c1)c1cccc(Cl)c1; 1 (yes)
O=c1cnn2c(c1O)-c1nccn1C[C@@H]2[C@H](c1ccc(F)cc1)c1cncc(F)c1; 0 (no)
O=c1ccn2c(c1O)-c1ncc(-c3ccccc3)n1C[C@@H]2C(c1ccccc1)c1ccccc1; 0 (no)
O=c1cnn2c(c1O)-c1nccn1C[C@@H]2[C@@H](c1ccc(F)cc1)c1cccc(C(F)(F)F)c1; 1 (yes)
